B1: library; a variant is named by its letters at N, in order (parent)
chain: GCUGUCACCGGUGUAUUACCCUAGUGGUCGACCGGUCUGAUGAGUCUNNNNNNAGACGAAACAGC

# Variants of: B1
# Assay Notes: normalized RNA/DNA level with ligand (relative to sTRSVctl = 100) (log10 (% of sTRSVctl)); ligand: hypoxanthine (xanthine aptamer); higher = less ribozyme self-cleavage, higher mRNA level
# Test Settings: ligand concentration (+) RNA-Seq: 5 mM, HEK293T, reporter: mCherry (pCS4076), ligand present: yes
Documented normalized RNA/DNA level with ligand (log10) across a set of variants
Assay Endpoint: normalized RNA/DNA level with ligand (log10)

>  <Mutations>
AUAUCU

>  <Result>
1.89

$$$$
>  <Mutations>
GAUCUC

>  <Result>
1.94

$$$$
>  <Mutations>
ACUUGU

>  <Result>
1.91

$$$$
>  <Mutations>
AUACUU

>  <Result>
1.92

$$$$
>  <Mutations>
UGUUUA

>  <Result>
1.94

$$$$
>  <Mutations>
UUUUGG

>  <Result>
1.9

$$$$
>  <Mutations>
AAUGGG

>  <Result>
1.77

$$$$
>  <Mutations>
CGAUCC

>  <Result>
2.01

$$$$
>  <Mutations>
GCGUCC

>  <Result>
1.93

$$$$
>  <Mutations>
UUCUCC

>  <Result>
1.97

$$$$
>  <Mutations>
GCUAUU

>  <Result>
1.93

$$$$
>  <Mutations>
UGCGAU

>  <Result>
1.93

$$$$
>  <Mutations>
GGAUCG

>  <Result>
1.95

$$$$
>  <Mutations>
GCUAAU

>  <Result>
1.93

$$$$
>  <Mutations>
GUGUAG

>  <Result>
1.76

$$$$
>  <Mutations>
UAUUUU

>  <Result>
1.94

$$$$
>  <Mutations>
GUUUGC

>  <Result>
1.92

$$$$
>  <Mutations>
CAUUAG

>  <Result>
1.94

$$$$
>  <Mutations>
UAGAAA

>  <Result>
1.88

$$$$
>  <Mutations>
CUUGCC

>  <Result>
1.96

$$$$
>  <Mutations>
UCCAGG

>  <Result>
1.91

$$$$
>  <Mutations>
CCUAUG

>  <Result>
1.92

$$$$
>  <Mutations>
GGUUCU

>  <Result>
1.98

$$$$
>  <Mutations>
CGAUUU

>  <Result>
1.92

$$$$
>  <Mutations>
GGAUAA

>  <Result>
1.9

$$$$
>  <Mutations>
CACAUU

>  <Result>
1.91

$$$$
>  <Mutations>
GGCAUC

>  <Result>
1.97

$$$$
>  <Mutations>
CCGAAC

>  <Result>
1.9

$$$$
>  <Mutations>
GGAUAU

>  <Result>
1.9

$$$$
>  <Mutations>
CACGGC

>  <Result>
1.97

$$$$
>  <Mutations>
GGGGUG

>  <Result>
1.95

$$$$
>  <Mutations>
UGCCGG

>  <Result>
1.94

$$$$
>  <Mutations>
UCUUUG

>  <Result>
1.95

$$$$
>  <Mutations>
ACGAAG

>  <Result>
1.49

$$$$
>  <Mutations>
GGACCU

>  <Result>
1.98

$$$$
>  <Mutations>
AACGGA

>  <Result>
1.92

$$$$
>  <Mutations>
AGGCUA

>  <Result>
1.93

$$$$
>  <Mutations>
AAUUGG

>  <Result>
1.87

$$$$
>  <Mutations>
GCGCGC

>  <Result>
1.93

$$$$
>  <Mutations>
GCGGGA

>  <Result>
1.97

$$$$
>  <Mutations>
AGUUCC

>  <Result>
1.92

$$$$
>  <Mutations>
CUGCCC

>  <Result>
1.99

$$$$
>  <Mutations>
UGGUUA

>  <Result>
1.94

$$$$
>  <Mutations>
CGACCU

>  <Result>
1.98

$$$$
>  <Mutations>
UCCCGU

>  <Result>
1.93

$$$$
>  <Mutations>
CAAGGG

>  <Result>
1.72

$$$$
>  <Mutations>
CACUCA

>  <Result>
1.93

$$$$
>  <Mutations>
GUAGGG

>  <Result>
1.86

$$$$
>  <Mutations>
CAGUGC

>  <Result>
1.96

$$$$
>  <Mutations>
AACACU

>  <Result>
1.92

$$$$
>  <Mutations>
CGUCUU

>  <Result>
2.01

$$$$
>  <Mutations>
UACGGA

>  <Result>
1.93

$$$$
>  <Mutations>
AACACG

>  <Result>
1.85

$$$$
